biological target: Tyrosine-protein kinase Yes (Homo sapiens, UniProt P07947); test: Inhibition of N-terminal His6-tagged human recombinant Yes expressed in baculovirus infected insect Sf21 cells after 1 hr by Alphascreen assay
Sequence (P07947 whole entry): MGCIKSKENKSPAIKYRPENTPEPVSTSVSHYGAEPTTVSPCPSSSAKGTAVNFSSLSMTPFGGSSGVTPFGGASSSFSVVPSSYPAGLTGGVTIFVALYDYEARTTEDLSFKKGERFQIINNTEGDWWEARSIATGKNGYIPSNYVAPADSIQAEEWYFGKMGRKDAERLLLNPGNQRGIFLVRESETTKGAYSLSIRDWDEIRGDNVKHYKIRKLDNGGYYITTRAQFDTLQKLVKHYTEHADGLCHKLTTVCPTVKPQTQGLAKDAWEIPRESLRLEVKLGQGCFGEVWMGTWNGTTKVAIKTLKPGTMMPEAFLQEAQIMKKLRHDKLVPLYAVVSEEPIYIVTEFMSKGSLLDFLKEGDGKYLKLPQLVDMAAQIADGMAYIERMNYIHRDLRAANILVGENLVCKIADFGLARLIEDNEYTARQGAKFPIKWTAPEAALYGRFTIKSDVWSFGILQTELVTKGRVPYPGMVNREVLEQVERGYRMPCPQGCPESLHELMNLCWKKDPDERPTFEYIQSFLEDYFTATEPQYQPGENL
pIC50: −log10 of the molar value.
Measure: pIC50

COc1ccc(-c2cnc3cncc(Nc4ccc(N5CCOCC5)cc4)c3n2)cc1: 5.62

1. COc1ccc(-c2cnc3cncc(Nc4cc(OC)ccc4OC)c3n2)cc1
2. COc1ccc(-c2cnc3c(Nc4ccc(N5CCOCC5)cc4)nccc3n2)cc1
Input line: Endpoint returns the identifier whose pIC50 is numerically larger, either 1 or 2 . State your choice using its label.
Output line: 1

* * *

target: Homeodomain-interacting protein kinase 1 (Homo sapiens); assay: Inhibition of N-terminal His6-tagged recombinant human HIPK1 (158 to 555 residues) after 1 hr by Alphascreen assay
Measure: IC50 (µM)

COc1ccc(NC(=O)Nc2cncc3nc(-c4ccccc4)cnc23)cc1: 20.4
COc1ccc(-c2cnc3cncc(Nc4ccc(N5CCCCC5)cc4)c3n2)cc1: 3.21

A. c1ccc(-c2cnc3cncc(Nc4ccc(N5CCOCC5)cc4)c3n2)cc1
B. c1ccc(-c2cnc3cncc(Nc4ccc(N5CCCCC5)cc4)c3n2)cc1
C. COc1ccc(-c2cnc3cncc(Nc4ccc(N5CCOCC5)cc4)c3n2)cc1
Input line: Order the 3 compounds from highest to lowest IC50. Please reply with the labels ordered as requested. Many thanks.
Output line: A, C, B

* * *

molecular target: Serine/threonine-protein kinase pim-1 (Homo sapiens); experiment: Inhibition of N-terminal GST-tagged recombinant human full length Pim-1 expressed in Escherichia coli after 1 hr by Alphascreen assay
Sequence (P11309 whole entry): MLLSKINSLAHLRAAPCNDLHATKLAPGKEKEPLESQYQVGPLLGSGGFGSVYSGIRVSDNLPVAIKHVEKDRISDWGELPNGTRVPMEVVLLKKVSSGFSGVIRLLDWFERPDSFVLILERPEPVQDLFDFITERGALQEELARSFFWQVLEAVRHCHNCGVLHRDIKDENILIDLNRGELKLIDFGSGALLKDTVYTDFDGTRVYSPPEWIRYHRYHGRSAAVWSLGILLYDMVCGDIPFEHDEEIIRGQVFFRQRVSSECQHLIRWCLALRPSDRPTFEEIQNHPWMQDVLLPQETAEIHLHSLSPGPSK
Measure: IC50 (µM)

A. COc1ccc(-c2cnc3c(Nc4ccc(N5CCCCC5)cc4)nccc3n2)cc1
B. c1ccc(-c2cnc3cnc(Nc4ccc(N5CCCCC5)cc4)cc3n2)cc1
Input line: Smaller IC50 value, A vs B ? Your answer should be the label of the entry you select.
Output line: A

A. COc1ccc(-c2cnc3cncc(Nc4ccc(N5CCCCC5)cc4)c3n2)cc1
B. COc1ccc(NC(=O)Nc2cncc3nc(-c4ccccc4)cnc23)cc1
C. COc1cccc(Nc2cncc3ncc(-c4ccc(N5CCCCC5)cc4)nc23)c1
D. c1ccc(Nc2cncc3ncc(-c4ccc(N5CCCCC5)cc4)nc23)cc1
Input line: Ascending by IC50, please: list the compounds accordingly. Answer format: list of labels, ordered as asked.
Output line: A, C, B, D

* * *

target: High affinity nerve growth factor receptor (Homo sapiens, UniProt P04629); test: Inhibition of N-terminal His6-tagged human recombinant TrkA (440 to end residues) expressed in baculovirus infected insect Sf21 cells after 1 hr by Alphascreen assay
Sequence (P04629 whole entry): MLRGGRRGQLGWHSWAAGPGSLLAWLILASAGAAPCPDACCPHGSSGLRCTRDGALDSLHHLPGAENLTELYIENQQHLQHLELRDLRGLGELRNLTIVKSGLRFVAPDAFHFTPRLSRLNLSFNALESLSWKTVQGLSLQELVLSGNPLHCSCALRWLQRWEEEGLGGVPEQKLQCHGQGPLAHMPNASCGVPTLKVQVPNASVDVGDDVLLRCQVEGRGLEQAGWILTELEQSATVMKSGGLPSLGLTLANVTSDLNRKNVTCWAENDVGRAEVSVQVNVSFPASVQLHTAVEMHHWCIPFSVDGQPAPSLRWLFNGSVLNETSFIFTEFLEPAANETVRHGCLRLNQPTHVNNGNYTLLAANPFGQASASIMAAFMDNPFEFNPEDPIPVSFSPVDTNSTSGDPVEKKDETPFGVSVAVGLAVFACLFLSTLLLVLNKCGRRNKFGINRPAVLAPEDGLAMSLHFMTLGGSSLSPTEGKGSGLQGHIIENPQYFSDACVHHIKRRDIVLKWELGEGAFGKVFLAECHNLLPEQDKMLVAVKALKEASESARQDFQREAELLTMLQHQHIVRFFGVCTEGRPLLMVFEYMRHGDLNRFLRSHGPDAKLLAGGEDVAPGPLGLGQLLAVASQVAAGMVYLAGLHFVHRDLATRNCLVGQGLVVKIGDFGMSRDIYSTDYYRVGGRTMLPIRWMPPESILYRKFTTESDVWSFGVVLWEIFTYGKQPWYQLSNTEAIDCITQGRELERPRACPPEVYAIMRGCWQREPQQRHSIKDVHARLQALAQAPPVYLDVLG
Measure: IC50

These solved cases illustrate the format of a correct answer.
CCNC(=O)Nc1nccc2nc(-c3ccccc3)cnc12: > 100 µM
COc1cccc(NC(=O)Nc2nccc3nc(-c4ccccc4)cnc23)c1: > 100 µM

Input line: Using the record for `c1ccc(Nc2cncc3ncc(-c4ccc(N5CCCCC5)cc4)nc23)cc1` , report its IC50.
Output line: 7.79 µM

Input line: What measured IC50 goes with `COc1ccc(-c2cnc3c(Nc4ccc(N5CCOCC5)cc4)nccc3n2)cc1` ?
Output line: 6.69 µM

Input line: What measured IC50 goes with `COc1ccccc1Nc1nccc2nc(-c3ccccc3)cnc12` ?
Output line: > 100 µM

Input line: Record request: IC50 value, item `COc1cccc(Nc2cncc3nc(-c4ccc(N5CCCCC5)cc4)cnc23)c1`
Output line: > 100 µM

* * *

molecular target: Homeodomain-interacting protein kinase 1 (Homo sapiens, UniProt Q86Z02); assay: Inhibition of N-terminal His6-tagged recombinant human HIPK1 (158 to 555 residues) after 1 hr by Alphascreen assay
Sequence (Q86Z02 whole entry, the tested form may be a part): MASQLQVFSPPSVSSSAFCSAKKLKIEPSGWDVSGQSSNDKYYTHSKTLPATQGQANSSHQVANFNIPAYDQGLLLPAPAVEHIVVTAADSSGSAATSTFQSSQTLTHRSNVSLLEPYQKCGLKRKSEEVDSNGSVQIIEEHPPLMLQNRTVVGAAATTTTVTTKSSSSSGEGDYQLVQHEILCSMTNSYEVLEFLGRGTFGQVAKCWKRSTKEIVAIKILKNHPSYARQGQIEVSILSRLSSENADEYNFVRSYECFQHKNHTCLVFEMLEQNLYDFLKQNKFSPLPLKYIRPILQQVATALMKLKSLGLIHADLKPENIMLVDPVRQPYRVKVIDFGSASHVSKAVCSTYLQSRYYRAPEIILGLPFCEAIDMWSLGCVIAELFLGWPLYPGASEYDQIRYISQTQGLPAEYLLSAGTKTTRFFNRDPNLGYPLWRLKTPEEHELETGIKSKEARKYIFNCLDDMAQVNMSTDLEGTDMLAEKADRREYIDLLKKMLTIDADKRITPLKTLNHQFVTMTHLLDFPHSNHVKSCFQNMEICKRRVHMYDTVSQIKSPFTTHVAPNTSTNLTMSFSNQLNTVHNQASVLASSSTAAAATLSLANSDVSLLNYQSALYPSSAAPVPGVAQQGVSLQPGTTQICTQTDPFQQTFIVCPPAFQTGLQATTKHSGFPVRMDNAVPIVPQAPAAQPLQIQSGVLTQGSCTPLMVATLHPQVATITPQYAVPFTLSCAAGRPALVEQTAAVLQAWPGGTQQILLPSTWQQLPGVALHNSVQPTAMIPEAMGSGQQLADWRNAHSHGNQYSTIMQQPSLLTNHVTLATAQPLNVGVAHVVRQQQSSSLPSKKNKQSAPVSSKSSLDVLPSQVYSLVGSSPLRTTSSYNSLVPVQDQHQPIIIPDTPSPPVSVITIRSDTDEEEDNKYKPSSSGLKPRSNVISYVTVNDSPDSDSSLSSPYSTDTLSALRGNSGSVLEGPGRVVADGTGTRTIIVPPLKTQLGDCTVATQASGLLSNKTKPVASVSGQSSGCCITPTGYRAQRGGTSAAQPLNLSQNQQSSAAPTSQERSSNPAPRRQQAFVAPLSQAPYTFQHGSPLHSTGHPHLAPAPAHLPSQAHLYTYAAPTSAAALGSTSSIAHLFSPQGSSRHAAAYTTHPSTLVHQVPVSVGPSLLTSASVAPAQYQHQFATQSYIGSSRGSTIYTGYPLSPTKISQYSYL
pIC50: −log10 of the molar value.
Measure: pIC50

Field: example entries. Status: answers known.
c1ccc(-c2cnc3cnc(Nc4ccc(N5CCCCC5)cc4)cc3n2)cc1: 4.52
c1ccc(-c2cnc3c(Nc4ccc(N5CCCCC5)cc4)nccc3n2)cc1: 6.04
c1ccc(Nc2cncc3ncc(-c4ccc(N5CCCCC5)cc4)nc23)cc1: 4.93
COc1cccc(Nc2cncc3ncc(-c4ccc(N5CCCCC5)cc4)nc23)c1: 4.90

a. COc1ccc(-c2cnc3cncc(Nc4cc(OC)ccc4OC)c3n2)cc1
b. c1ccc(-c2cnc3c(Nc4ccc(N5CCCCC5)cc4)cncc3n2)cc1
c. COc1ccc(-c2cnc3c(Nc4ccc(N5CCCCC5)cc4)nccc3n2)cc1
Input line: Let's sort these by pIC50, smallest first. Go ahead? Your task in answering is to list the labels in the requested order.
Output line: a, c, b

* * *

molecular target: Mitogen-activated protein kinase 1 (Homo sapiens, UniProt P28482); test: Inhibition of recombinant ERK2 (unknown origin) after 1 hr by Alphascreen assay
Sequence (P28482 whole entry): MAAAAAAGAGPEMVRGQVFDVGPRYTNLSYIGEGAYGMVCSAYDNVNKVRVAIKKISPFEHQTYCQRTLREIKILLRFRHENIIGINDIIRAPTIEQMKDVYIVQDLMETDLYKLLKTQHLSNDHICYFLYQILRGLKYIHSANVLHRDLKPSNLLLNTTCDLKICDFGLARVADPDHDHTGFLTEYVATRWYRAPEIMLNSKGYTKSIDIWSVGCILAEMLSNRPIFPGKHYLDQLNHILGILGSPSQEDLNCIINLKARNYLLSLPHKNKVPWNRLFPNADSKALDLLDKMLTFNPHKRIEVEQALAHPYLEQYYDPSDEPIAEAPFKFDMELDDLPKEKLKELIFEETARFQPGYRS
Measure: IC50 (µM)

a. c1ccc(-c2cnc3cncc(Nc4ccc(N5CCOCC5)cc4)c3n2)cc1
b. c1ccc(Nc2cncc3ncc(-c4ccc(N5CCCCC5)cc4)nc23)cc1
c. c1ccc(-c2cnc3c(Nc4ccc(N5CCCCC5)cc4)nccc3n2)cc1
Input line: Falling order of IC50, please. Would you mind listing the labels in the order asked for?
Output line: b, a, c
(b: 12.2 µM, a: 8.43 µM, c: 1.42 µM)

* * *

biological target: Tyrosine-protein kinase ABL1 (Homo sapiens); assay: Inhibition of recombinant c-Abl (unknown origin) after 1 hr by Alphascreen assay
Sequence (P00519 whole entry): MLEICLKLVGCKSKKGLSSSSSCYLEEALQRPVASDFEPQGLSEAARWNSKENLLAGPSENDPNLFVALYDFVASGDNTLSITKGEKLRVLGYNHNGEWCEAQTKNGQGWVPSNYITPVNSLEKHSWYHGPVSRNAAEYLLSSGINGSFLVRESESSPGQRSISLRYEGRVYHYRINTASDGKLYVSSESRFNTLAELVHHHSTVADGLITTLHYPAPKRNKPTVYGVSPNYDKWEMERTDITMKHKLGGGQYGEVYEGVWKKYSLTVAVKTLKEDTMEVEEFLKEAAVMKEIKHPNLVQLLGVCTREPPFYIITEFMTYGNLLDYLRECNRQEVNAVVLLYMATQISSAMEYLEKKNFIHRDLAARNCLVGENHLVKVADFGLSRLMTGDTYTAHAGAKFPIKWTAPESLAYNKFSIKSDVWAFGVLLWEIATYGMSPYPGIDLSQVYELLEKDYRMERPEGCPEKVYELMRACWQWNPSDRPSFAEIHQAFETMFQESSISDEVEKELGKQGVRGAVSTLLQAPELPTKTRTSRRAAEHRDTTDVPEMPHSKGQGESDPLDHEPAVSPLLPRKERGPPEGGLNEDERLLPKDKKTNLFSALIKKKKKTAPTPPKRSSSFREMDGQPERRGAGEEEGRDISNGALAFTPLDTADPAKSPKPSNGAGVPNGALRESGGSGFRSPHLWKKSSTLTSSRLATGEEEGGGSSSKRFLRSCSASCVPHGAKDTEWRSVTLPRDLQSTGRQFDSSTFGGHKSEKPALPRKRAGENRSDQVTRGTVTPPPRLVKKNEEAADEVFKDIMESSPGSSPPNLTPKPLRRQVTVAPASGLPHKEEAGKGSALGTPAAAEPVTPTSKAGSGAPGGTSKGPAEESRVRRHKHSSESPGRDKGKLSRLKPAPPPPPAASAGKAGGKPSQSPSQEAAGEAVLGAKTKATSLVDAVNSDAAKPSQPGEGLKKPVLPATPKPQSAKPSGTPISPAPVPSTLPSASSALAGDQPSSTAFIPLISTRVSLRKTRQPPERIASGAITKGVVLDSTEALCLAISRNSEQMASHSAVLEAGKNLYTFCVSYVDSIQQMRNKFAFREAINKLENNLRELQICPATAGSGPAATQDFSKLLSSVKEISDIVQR
Measure: IC50 (µM)

c1ccc(-c2cnc3cc(Nc4ccc(N5CCCCC5)cc4)ncc3n2)cc1: 12.9
c1ccc(-c2cnc3c(Nc4ccc(N5CCCCC5)cc4)nccc3n2)cc1: 2.66
c1ccc(-c2cnc3cncc(Nc4ccc(N5CCOCC5)cc4)c3n2)cc1: 5.27
c1ccc(Nc2cncc3nc(-c4ccc(N5CCCCC5)cc4)cnc23)cc1: 22.5
COc1ccc(-c2cnc3c(Nc4ccc(N5CCCCC5)cc4)nccc3n2)cc1: 1.34

1. c1ccc(-c2cnc3c(Nc4ccc(N5CCOCC5)cc4)nccc3n2)cc1
2. CCNC(=O)Nc1nccc2nc(-c3ccccc3)cnc12
Input line: Min IC50? 1 | 2 Use the label to indicate which entry you chose.
Output line: 1
(1: 11.5 µM, 2: 30.8 µM)

a. c1ccc(-c2cnc3cncc(Nc4ccc(N5CCCCC5)cc4)c3n2)cc1
b. c1ccc(-c2cnc3cnc(Nc4ccc(N5CCCCC5)cc4)cc3n2)cc1
Input line: Pick one: a or b . Which one has the lower reported IC50? Response format: the label of the selected entry.
Output line: a
(a: 2.16 µM, b: 8.71 µM)

* * *

target: Mitogen-activated protein kinase 1 (Homo sapiens, UniProt P28482); assay: Inhibition of recombinant ERK2 (unknown origin) after 1 hr by Alphascreen assay
Measure: IC50 (µM)

COc1ccc(-c2cnc3cncc(Nc4cc(OC)ccc4OC)c3n2)cc1: 3.79

A. COc1ccc(-c2cnc3cncc(Nc4ccc(N5CCOCC5)cc4)c3n2)cc1
B. c1ccc(-c2cnc3cnc(Nc4ccc(N5CCCCC5)cc4)cc3n2)cc1
Input line: Of the two listed items, A and B , which carries the larger IC50 figure? Selection: enter the item's label.
Output line: B

* * *

We begin with a simple list: items and their reported pIC50.
target: UniProt:P00519; experiment: Inhibition of recombinant c-Abl (unknown origin) after 1 hr by Alphascreen assay
pIC50: −log10 of the molar value.

Look over these answered cases.
C=CCNC(=O)Nc1cncc2nc(-c3ccccc3)cnc12: < 4.00
c1ccc(-c2cnc3cnc(Nc4ccc(N5CCOCC5)cc4)cc3n2)cc1: < 4.00
COc1cccc(NC(=O)Nc2cncc3nc(-c4ccccc4)cnc23)c1: < 4.00
COc1cccc(Nc2cncc3ncc(-c4ccc(N5CCCCC5)cc4)nc23)c1: 5.11
COc1cccc(Nc2cc3nc(-c4ccccc4)cnc3cn2)c1: < 4.00

Attention now turns to another entry.
Input line: Kindly state the measured pIC50 obtained for `COc1ccc(-c2cnc3cncc(Nc4ccc(N5CCOCC5)cc4)c3n2)cc1` with UniProt:P00519.
Output line: 5.60

* * *

// IC50 lookup, one value per entry
biological target: Serine/threonine-protein kinase pim-1 (Homo sapiens); assay: Inhibition of N-terminal GST-tagged recombinant human full length Pim-1 expressed in Escherichia coli after 1 hr by Alphascreen assay

Check out these entries, answers already filled in.
Fc1ccc(Nc2cncc3nc(-c4ccccc4)cnc23)cc1Cl: > 100 µM
COc1ccc(Nc2nccc3nc(-c4ccccc4)cnc23)cc1: > 100 µM
c1ccc(-c2cnc3c(Nc4ccc(N5CCOCC5)cc4)nccc3n2)cc1: > 100 µM

Input line: Bench note: what IC50 did `COc1ccc(-c2cnc3cncc(Nc4cc(OC)ccc4OC)c3n2)cc1` show?
Output line: 8.57 µM

Input line: Reported IC50, compound `COc1ccccc1Nc1nccc2nc(-c3ccccc3)cnc12` : ____
Output line: > 100 µM

Input line: Which value of IC50 has been reported for `COc1ccc(-c2cnc3c(Nc4ccc(N5CCOCC5)cc4)nccc3n2)cc1` in the records?
Output line: > 100 µM

* * *

biological target: Tyrosine-protein kinase Yes (Homo sapiens, UniProt P07947); test: Inhibition of N-terminal His6-tagged human recombinant Yes expressed in baculovirus infected insect Sf21 cells after 1 hr by Alphascreen assay
pIC50: −log10 of the molar value.
Measure: pIC50

Example results:
COc1cccc(Nc2cncc3ncc(-c4ccc(N5CCCCC5)cc4)nc23)c1: 4.95
COc1ccccc1Nc1nccc2nc(-c3ccccc3)cnc12: 4.69
COc1ccc(-c2cnc3cncc(Nc4ccc(N5CCCCC5)cc4)c3n2)cc1: 5.27
c1ccc(-c2cnc3c(Nc4ccc(N5CCCCC5)cc4)nccc3n2)cc1: 5.09
c1ccc(-c2cnc3c(Nc4ccc(N5CCCCC5)cc4)cncc3n2)cc1: 5.21

1. c1ccc(-c2cnc3cncc(Nc4ccc(N5CCOCC5)cc4)c3n2)cc1
2. c1ccc(Nc2cncc3ncc(-c4ccc(N5CCCCC5)cc4)nc23)cc1
3. c1ccc(-c2cnc3cnc(Nc4ccc(N5CCCCC5)cc4)cc3n2)cc1
Input line: Ascending by pIC50, please. Rank them, then answer with their labels in that order.
Output line: 3, 2, 1
